The origin of these recorded values is patent US8846750B2.

Target protein (sequence): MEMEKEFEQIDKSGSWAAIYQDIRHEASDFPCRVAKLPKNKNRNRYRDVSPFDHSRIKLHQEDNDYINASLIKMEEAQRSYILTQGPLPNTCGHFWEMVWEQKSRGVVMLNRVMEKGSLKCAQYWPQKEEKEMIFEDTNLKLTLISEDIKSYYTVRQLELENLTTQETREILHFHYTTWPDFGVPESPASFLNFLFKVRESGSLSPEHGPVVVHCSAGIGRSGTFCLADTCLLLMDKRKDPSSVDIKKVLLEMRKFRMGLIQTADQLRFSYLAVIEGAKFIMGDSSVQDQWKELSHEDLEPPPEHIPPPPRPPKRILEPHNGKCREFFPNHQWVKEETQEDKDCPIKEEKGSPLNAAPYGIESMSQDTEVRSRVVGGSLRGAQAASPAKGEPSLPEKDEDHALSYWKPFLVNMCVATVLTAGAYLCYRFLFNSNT

| compound | IC50 [nM] |
| --- | --- |
| CCCCCc1c2c(cc(O)c1C(=O)O)OC(=O)c1c(cc(OC)cc1C(=O)CCCC)O2 [lobaric acid] | 870 |

* * *

biological target: PTP-1b (protein tyrosine phosphatase-1b) (Homo sapiens)
value-kind: IC50 (µM)

| molecule | readout-number |
| --- | --- |
| CCCCCc1c2c(cc(O)c1C(=O)[O-])OC(=O)c1c(cc(OC)cc1C(=O)CCCC)O2.[Na+] [sodium lobarate] | 0.35 |
